For reference, IC50 measured on UniProt P31652:
parameter: IC50 (nM)

NC(=O)c1ccc2[nH]cc(C3=CCC(NCCCCCCCNC4CC=C(c5c[nH]c6ccc(C(N)=O)cc56)CC4)CC3)c2c1 (configuration not stated) = 17.7
NC(=O)c1ccc2[nH]cc(C3=CCC(NCCCCCCCCNC4CC=C(c5c[nH]c6ccc(C(N)=O)cc56)CC4)CC3)c2c1 (configuration not stated) = 12.4

* * *

Sequence of the target: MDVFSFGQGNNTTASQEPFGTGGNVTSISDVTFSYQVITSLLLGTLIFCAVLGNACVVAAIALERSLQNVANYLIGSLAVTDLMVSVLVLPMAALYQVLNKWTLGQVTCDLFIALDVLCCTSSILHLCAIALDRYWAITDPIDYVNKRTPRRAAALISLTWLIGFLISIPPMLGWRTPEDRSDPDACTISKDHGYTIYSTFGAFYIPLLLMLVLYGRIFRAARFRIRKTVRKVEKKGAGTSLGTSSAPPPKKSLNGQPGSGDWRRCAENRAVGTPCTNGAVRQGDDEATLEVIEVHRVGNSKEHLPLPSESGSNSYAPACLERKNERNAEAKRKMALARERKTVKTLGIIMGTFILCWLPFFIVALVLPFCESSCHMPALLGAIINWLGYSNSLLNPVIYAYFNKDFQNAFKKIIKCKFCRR
pIC50: −log10 of the molar value.
parameter: pIC50

Below, 3 compounds whose answers are already recorded.
CCCCCCCNC1CC=C(c2c[nH]c3ccc(C(N)=O)cc23)CC1 (stereo unspecified) = 8.90
NC(=O)c1ccc2[nH]cc(C3=CCC(NCCNC4CC=C(c5c[nH]c6ccc(C(N)=O)cc56)CC4)CC3)c2c1 (stereo unspecified) = 8.70
NC(=O)c1ccc2[nH]cc(C3=CCC(NCCCCCCCCNC4CC=C(c5c[nH]c6ccc(C(N)=O)cc56)CC4)CC3)c2c1 (stereo unspecified) = 8.67

A = NC(=O)c1ccc2[nH]cc(C3=CCC(NCCCCCCCNC4CC=C(c5c[nH]c6ccc(C(N)=O)cc56)CC4)CC3)c2c1 (stereo unspecified)
B = NC(=O)c1ccc2[nH]cc(C3=CCC(NCCCCCCCCCCCCNC4CC=C(c5c[nH]c6ccc(C(N)=O)cc56)CC4)CC3)c2c1 (stereo unspecified)
input: Could you kindly indicate whether A or B has the higher pIC50 value? Your answer should be the label of the entry you select.
output: B
